- procedure.summary: Cytotoxicity, tetrazolium salt (MTT) metabolic assay
- Format: cell-based
- test.conditions: cytotoxic effects, read-out: TC50 (the source's name)
Entries and their CC50 values follow.

{"smiles.code": "CN(Cc1ccccc1)C(=O)N1C(=O)C[C@@H]1CSc1ncccn1", "metric": "CC50", "assay.value": "> 150 µM"}
{"smiles.code": "CC[C@@H](NC(=O)N1C(=O)[C@@H](C)[C@@H]1CSc1nc2ccccc2s1)c1ccccc1", "metric": "CC50", "assay.value": "> 250 µM"}
{"smiles.code": "CN(Cc1ccc(C#N)cc1)C(=O)N1C(=O)C[C@@H]1CSc1ncccn1", "metric": "CC50", "assay.value": "> 250 µM"}

Give the reported value of CC50 for this record: CC[C@@H](NC(=O)N1C(=O)C[C@@H]1CSc1nc2ncccc2s1)c1ccccc1
> 53 µM

Give the reported value of CC50 for this record: COC(=O)c1ccc(CN(C)C(=O)N2C(=O)C[C@@H]2CSc2ncccn2)cc1
> 250 µM

Give the reported value of CC50 for this record: CC[C@@H](NC(=O)N1C(=O)C[C@@H]1COC(=O)c1ccccc1)c1ccccc1
250 µM

Give the reported value of CC50 for this record: CC[C@@H](NC(=O)N1C(=O)[C@@H](C)[C@@H]1CSc1ccoc1C)c1ccccc1
> 250 µM

Give the reported value of CC50 for this record: CN(Cc1ccc(C(F)(F)F)cc1)C(=O)N1C(=O)C[C@@H]1CSc1ncccn1
> 250 µM

====

The next entries give measured pIC50 for HCMV NO protease (Human cytomegalovirus, UniProt P16753).
# reply with the number alone; pIC50 is -log10 of concentration in mol/L

Worked cases, pIC50 given:
{"molecule": "CC[C@@H](NC(=O)N1C(=O)[C@@H](C)[C@@H]1CSCC(C)C)c1ccccc1", "pIC50": 5.46}
{"molecule": "CC[C@@H](NC(=O)N1C(=O)C[C@@H]1COc1ccccc1)c1ccccc1", "pIC50": 5.28}
{"molecule": "CC[C@@H](NC(=O)N1C(=O)C[C@@H]1[C@@H](C)Sc1ncccn1)c1ccccc1", "pIC50": 5.47}
{"molecule": "CC[C@@H](NC(=O)N1C(=O)C[C@@H]1CSc1nccc(C)n1)c1ccccc1", "pIC50": 5.40}
{"molecule": "CC[C@@H](NC(=O)N1C(=O)[C@@H](C)[C@@H]1COc1ccccc1)c1ccccc1", "pIC50": 5.57}
{"molecule": "CCSC[C@H]1[C@H](C)C(=O)N1C(=O)N[C@H](CC)c1ccccc1", "pIC50": 5.40}

Give the reported value of pIC50 for this record: CC[C@@H](NC(=O)N1C(=O)[C@@H](C)[C@@H]1CSC1CCCCC1)c1ccccc1
5.52

Give the reported value of pIC50 for this record: O=C1C[C@H](CSc2ncccn2)N1C(=O)N1CCC[C@@H]1c1ccccc1
4.85

Give the reported value of pIC50 for this record: CC[C@@H](NC(=O)N1C(=O)C[C@@H]1CS(=O)(=O)c1ccccc1)c1ccccc1
5.72

====

- Test system: HCMV (strain AD169, ATCC VR-538)
- procedure.summary: Plaque Reduction Assay (PRA) in HCMV-infected Hs-68 cells
- Assay type: cell-based, human cytomegalovirus (HCMV)
- test.conditions: Human betaherpesvirus 5, AD169, Hs68, 192 h
metric: EC50 (µM)
Write it as a number; the unit µM goes unstated.

{"molecule": "CC[C@@H](NC(=O)N1C(=O)C[C@@H]1COC(=O)c1cccc2ccccc12)c1ccccc1 [Entry 134]", "assayed.system": "HCMV (strain AD169, ATCC VR-538)", "assay.value": 9}

# return EC50 of CC[C@@H](NC(=O)N1C(=O)C[C@@H]1COC(=O)c1ccc2ccccc2c1)c1ccccc1 [Entry 133] (system: HCMV (strain AD169, ATCC VR-538))
18

# return EC50 of CC[C@@H](NC(=O)N1C(=O)C[C@@H]1COC(=O)c1ccccc1)c1ccccc1 [Entry 145] (system: HCMV (strain AD169, ATCC VR-538))
250

# return EC50 of CC[C@@H](NC(=O)N1C(=O)C[C@@H]1COC(=O)Nc1ccccc1)c1ccccc1 [Entry 131] (system: HCMV (strain AD169, ATCC VR-538))
20
